These data points were gathered from patent US20060121462A1.

# pIC50 per entry
target: T1, human C5L2 (human, UniProt Q9P296 1-337); test: competition with 50 pM 125I-C5a on C5L2-transfected RBL cells, 4 C
T1 construct: Expressed on stably transfected RBL-2H3 cells, on transiently or stably transfected HEK 293 cells, and endogenously on HSF cells; also called C5L2 receptor
T1 sequence (Q9P296 whole entry): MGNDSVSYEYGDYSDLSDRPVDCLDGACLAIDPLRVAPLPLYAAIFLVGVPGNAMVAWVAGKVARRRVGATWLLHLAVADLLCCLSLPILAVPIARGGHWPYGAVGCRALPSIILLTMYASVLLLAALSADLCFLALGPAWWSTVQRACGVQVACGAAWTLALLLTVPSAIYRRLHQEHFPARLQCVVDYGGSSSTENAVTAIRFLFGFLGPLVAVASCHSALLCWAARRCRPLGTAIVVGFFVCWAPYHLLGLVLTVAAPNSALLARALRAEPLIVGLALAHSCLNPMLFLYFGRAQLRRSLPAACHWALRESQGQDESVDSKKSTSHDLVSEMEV
pIC50: −log10 of the molar value.
observed-property: pIC50

* recombinant His6-tagged C5a des-Arg^74 (ligand, UniProt P01031 678-750, looked up, domain: C5a des-Arg^74; also called C5adR^74; not shown: His6 tag) TLQKKIEEIAAKYKHSVVKKCCYDGACVNNDETCEQRAARISLGPRCIKAFTECCVVASQLRANISHKDMQLG | 7.43
* recombinant C4a des-Arg^77 (ligand, UniProt P0C0L4 680-755, looked up, domain: C4a des-Arg^77; Expressed and purified under non-denaturing conditions; also called C4adR^77) NVNFQKAINEKLGQYASPTAKRCCQDGVTRLPMMRSCEQRAARVQQPDCREPFLSCCQFAESLRKKSRDKGQAGLQ | 3.77
* recombinant C4a (ligand, UniProt P0C0L4 680-756, looked up, domain: C4a; Expressed and purified under non-denaturing conditions) NVNFQKAINEKLGQYASPTAKRCCQDGVTRLPMMRSCEQRAARVQQPDCREPFLSCCQFAESLRKKSRDKGQAGLQR | 5.42
